Experiment: Decomposition point of cyanine dye by DTA/TGA
Format: physicochemical
Settings: temperature at which specimen begins to lose weight on TGA; heating rate 10° C./min
Endpoint Label: Decomposition point (° C.) (°C)
// units = °C; emit number, no label

Completed entries (count: 3):
Query string: If you can, please state the reported Decomposition point (° C.) value of CCCCN1C(=CC=CC2=[N+](CC)c3ccc4ccccc4c3C2(C)C)C(C)(C)c2c1ccc1ccccc21 [Chemical Formula 74, reference compound] .
Result string: 211.5

Query string: What about CCCCN1C(=CC=CC2=[N+](CCCC)c3ccc4ccccc4c3C2(C)C)C(C)(C)c2c1ccc1ccccc21 [Chemical Formula 76, reference compound] ?
Result string: 266.1

Query string: Also check CCCCN1C(=CC=CC2=[N+](CC)c3ccc4ccccc4c3C2(C)C)C(C)(C)c2c1ccc1ccccc21 [Chemical Formula 20]
Result string: 281.8

New cases:
Query string: I am curious: what Decomposition point (° C.) value has been reported for CCCCN1C(=CC=CC2=[N+](C)c3ccc4ccccc4c3C2(C)C)C(C)(C)c2c1ccc1ccccc21 [Chemical Formula 73, reference compound] ?
Result string: 242.2

Query string: Similarly, CCCCN1C(=CC=CC2=[N+](C)c3ccc4ccccc4c3C2(C)C)C(C)(C)c2c1ccc1ccccc21 [Chemical Formula 13] ?
Result string: 264.7

Query string: Now the same for CCCCN1C(=CC=CC2=[N+](CCCC)c3ccc4ccccc4c3C2(C)C)C(C)(C)c2c1ccc1ccccc21 [Chemical Formula 33]
Result string: 284.2
